# procedure-summary: in vivo
# details: Yorkshire, pig, po, 20 mg/kg
quantity: concentration at 8 h (ng/mL)
// return numeric value only (unit: ng/mL, not printed)

Per the records, this molecule ( CC1(C)S[C@@H]2[C@H](NC(=O)[C@H](N)c3ccc(O)cc3)C(=O)N2[C@H]1C(=O)O [amoxicillin, Amoxicillin] ) has concentration at 8 h equal to 1500

----------
# procedure-summary: in vivo
# details: Yorkshire, pig, po, 20 mg/kg
quantity: concentration at 1 h (ng/mL)
// return numeric value only (unit: ng/mL, not printed)

Per the records, this compound ( `CC1(C)S[C@@H]2[C@H](NC(=O)[C@H](N)c3ccc(O)cc3)C(=O)N2[C@H]1C(=O)O` ) has concentration at 1 h equal to 8900
